Every entry's value here was drawn from ChEMBL document CHEMBL4622868.

Exercise: state measured pIC50 for each of the compounds provided.
testSummary: Cytotoxicity against human Chang cells
Assay type: cell-based
One number for each entry, as −log10 of the molar value.

1. CCCCCCCCCCCCCCCCCC[P+](Cc1ccccc1O)(c1ccccc1)c1ccccc1.[Cl-] : 4.16
2. CCCCCCC[P+](Cc1ccccc1O)(c1ccccc1)c1ccccc1.[Cl-] : 4.38
3. CCCCCCCC[P+](Cc1ccccc1O)(c1ccccc1)c1ccccc1.[Cl-] : 4.33

Below are some compounds; for each one, tell me its pIC50.
1. CCCCCC[P+](Cc1ccccc1O)(c1ccccc1)c1ccccc1.[Cl-]
2. CCCCCCCCCC[P+](Cc1ccccc1O)(c1ccccc1)c1ccccc1.[Cl-]
3. CC/C(=C(\c1ccccc1)c1ccc(OCCN(C)C)cc1)c1ccccc1
4. CCCCCCCCCCCC[P+](Cc1ccccc1O)(c1ccccc1)c1ccccc1.[Cl-]
5. CCCCCCCCCCCCCC[P+](Cc1ccccc1O)(c1ccccc1)c1ccccc1.[Cl-]
6. CCCCCCCCCCCCCCCC[P+](Cc1ccccc1O)(c1ccccc1)c1ccccc1.[Cl-]

Resp:
4.19
4.34
4.34
4.37
4.37
4.34

Req: Answer with the recorded pIC50 for the compound listed here: COc1cccc2c1C(=O)c1c(O)c3c(c(O)c1C2=O)C[C@@](O)(C(=O)CO)C[C@@H]3O[C@H]1C[C@H](N)[C@H](O)[C@H](C)O1
Resp: 5.52

====

System: Staphylococcus aureus
testSummary: Antibacterial activity against Staphylococcus aureus ATCC 209p
Assay type: functional
readout: log10 MIC (log10 of the value in µM)
In our notation, the value equals log10 of MIC in µM.

1) CCCCCCCCCC[P+](Cc1ccccc1O)(c1ccccc1)c1ccccc1.[Cl-] : 0.00

Below are some compounds; for each one, tell me its log10 MIC.
1. C=CCCCC[P+](Cc1ccccc1O)(c1ccccc1)c1ccccc1
2. CCCCCCCCCCCCCCCCCC[P+](Cc1ccccc1O)(c1ccccc1)c1ccccc1.[Cl-]
3. CCCCCCCCCCCC[P+](Cc1ccccc1O)(c1ccccc1)c1ccccc1.[Cl-]
4. CCCCCCC[P+](Cc1ccccc1O)(c1ccccc1)c1ccccc1.[Cl-]
5. CCCCCC[P+](Cc1ccccc1O)(c1ccccc1)c1ccccc1.[Cl-]
6. CCCCCCCCCCCCCCCC[P+](Cc1ccccc1O)(c1ccccc1)c1ccccc1.[Cl-]

Resp:
1. 2.78
2. 2.03
3. 0.00
4. 1.26
5. 1.28
6. 0.53

Below are some compounds; for each one, tell me its log10 MIC.
1. CC1COc2c(N3CCN(C)CC3)c(F)cc3c(=O)c(C(=O)O)cn1c23 (stereo unspecified)
2. CCCCCCCC[P+](Cc1ccccc1O)(c1ccccc1)c1ccccc1.[Cl-]
3. O=C(O)c1cn(C2CC2)c2cc(N3CCNCC3)c(F)cc2c1=O

Resp:
1. 0.38
2. 0.94
3. -0.15

Req: # assay system Staphylococcus aureus: give log10 MIC of CCCCCCCCCCCCCC[P+](Cc1ccccc1O)(c1ccccc1)c1ccccc1.[Cl-]
Resp: 0.56

====

testSummary: Hemolytic activity against RBC (unknown origin) at 60 uM
Type: ADME, cell-based, Erythrocyte
conditionContext: red blood cells (erythrocytes); read-out: Activity
Non-standard residues stand in square brackets, D forms with d. Residues, ends and D or L forms follow the SMILES beside them. Orn = NCCC[C@H](N)C(=O)O
Exercise: state measured hemolysis at 60 µM for each of the compounds provided.
Answers are plain numbers, in %.

Examples with answers:
1) CCCCCCCCCC[P+](Cc1ccccc1O)(c1ccccc1)c1ccccc1.[Cl-] : 2.8
2) CCCCCCCCCCCCCCCCCC[P+](Cc1ccccc1O)(c1ccccc1)c1ccccc1.[Cl-] : 2.5
3) CCCCCCCCCCCCCC[P+](Cc1ccccc1O)(c1ccccc1)c1ccccc1.[Cl-] : 74

// next item, hemolysis at 60 µM requested
Req: Answer with the recorded hemolysis at 60 µM for the compound listed here: CC(C)C[C@@H]1NC(=O)[C@H](CCCN)NC(=O)[C@H](C(C)C)NC(=O)[C@@H]2CCCN2C(=O)[C@@H](Cc2ccccc2)NC(=O)[C@H](CC(C)C)NC(=O)[C@H](CCCN)NC(=O)[C@H](C(C)C)NC(=O)[C@@H]2CCCN2C(=O)[C@@H](Cc2ccccc2)NC1=O (cyclo(L[dF]PV[Orn]L[dF]PV[Orn]))
Resp: 99
